# Assayed Target: Melanocortin receptor 5 (Homo sapiens, UniProt P33032); also: in other assays of this panel Not Active means under 50% inhibition at 10 µM
# Sequence (P33032 whole entry): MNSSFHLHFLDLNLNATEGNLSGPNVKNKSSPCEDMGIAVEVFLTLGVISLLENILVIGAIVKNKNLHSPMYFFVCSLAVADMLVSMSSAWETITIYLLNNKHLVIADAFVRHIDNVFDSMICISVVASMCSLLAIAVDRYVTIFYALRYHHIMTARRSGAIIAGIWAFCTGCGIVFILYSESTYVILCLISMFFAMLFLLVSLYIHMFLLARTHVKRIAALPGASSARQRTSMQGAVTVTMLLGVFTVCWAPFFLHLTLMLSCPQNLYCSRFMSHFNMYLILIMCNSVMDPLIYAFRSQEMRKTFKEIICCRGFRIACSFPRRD
# Type: cell membranes, HEK293, Membrane
# Measurement Parameters: hek293; read-out: Ki
Readout Label: pKi
Note on units: pKi is unitless, being -log10 of a concentration expressed in mol/L.

Input line: Which pKi is reported for this sequence? `COLISTIN`
Output line: 6.60

* * *

# Assayed Target: B2 bradykinin receptor (Homo sapiens); also: in other assays of this panel Not Active means under 50% inhibition at 10 µM
# Sequence (P30411 whole entry): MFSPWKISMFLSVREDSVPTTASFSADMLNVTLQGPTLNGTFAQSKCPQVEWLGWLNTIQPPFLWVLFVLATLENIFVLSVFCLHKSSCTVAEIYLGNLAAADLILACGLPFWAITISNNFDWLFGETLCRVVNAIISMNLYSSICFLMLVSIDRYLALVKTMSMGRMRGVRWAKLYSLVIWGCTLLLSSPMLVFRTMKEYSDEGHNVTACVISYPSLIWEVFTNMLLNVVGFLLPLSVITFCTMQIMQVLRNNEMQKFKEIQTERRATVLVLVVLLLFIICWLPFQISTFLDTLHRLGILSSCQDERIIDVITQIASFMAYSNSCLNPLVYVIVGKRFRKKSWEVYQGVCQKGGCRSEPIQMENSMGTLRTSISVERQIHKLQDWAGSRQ
# Type: cell membranes, Membrane
# Measurement Parameters: chem-1
Readout Label: IC50

Solved cases (5 shown):
{"Compound": "O=C(O)c1ccccc1O", "IC50": "Not Active"}
{"Compound": "NCCCNCCSP(=O)(O)O", "IC50": "Not Active"}
{"Compound": "CC(=O)Oc1ccccc1C(=O)O", "IC50": "Not Active"}
{"Compound": "CO/N=C(\\C(=O)N[C@@H]1C(=O)N2C(C(=O)O)=C(COC(C)=O)CS[C@H]12)c1csc(N)n1", "IC50": "Not Active"}
{"Compound": "CC(=N)S [THIOACETAMIDE]", "IC50": "Not Active"}

Input line: Return reported IC50; argument: `CN(C)CCC=C1c2ccccc2CCc2ccccc21`
Output line: Not Active

* * *

# pIC50 values compiled below
# Assayed Target: Alpha-1D adrenergic receptor (Homo sapiens); also: in other assays of this panel Not Active means under 50% inhibition at 10 µM
# Sequence (P25100 whole entry): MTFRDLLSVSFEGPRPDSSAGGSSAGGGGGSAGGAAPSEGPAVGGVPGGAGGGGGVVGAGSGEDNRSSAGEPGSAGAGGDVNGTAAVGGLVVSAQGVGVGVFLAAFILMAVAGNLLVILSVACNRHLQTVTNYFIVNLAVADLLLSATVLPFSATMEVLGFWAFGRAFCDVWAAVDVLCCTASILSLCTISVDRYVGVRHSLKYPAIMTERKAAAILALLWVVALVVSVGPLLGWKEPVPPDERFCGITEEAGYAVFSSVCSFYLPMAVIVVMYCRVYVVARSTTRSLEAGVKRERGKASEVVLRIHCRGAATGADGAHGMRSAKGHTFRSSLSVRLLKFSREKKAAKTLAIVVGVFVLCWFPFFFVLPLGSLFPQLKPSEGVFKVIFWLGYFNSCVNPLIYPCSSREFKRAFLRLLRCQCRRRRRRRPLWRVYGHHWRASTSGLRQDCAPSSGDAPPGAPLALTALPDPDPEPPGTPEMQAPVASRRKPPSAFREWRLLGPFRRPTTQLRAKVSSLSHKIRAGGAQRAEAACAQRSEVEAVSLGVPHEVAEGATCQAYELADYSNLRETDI
# Type: cell membranes, HEK293, Membrane
# Measurement Parameters: read-out: IC50
Remember, pIC50 is on a log scale: it is -log10 of the molar concentration.

The cases that follow already have their pIC50 on record.
{"Compound": "Clc1ccc(COC(Cn2ccnc2)c2ccc(Cl)cc2Cl)c(Cl)c1 (centres undefined)", "Readout Number": 5.52}
{"Compound": "OCCOCCN1CCN(C2=Nc3ccccc3Sc3ccccc32)CC1", "Readout Number": 7.02}
{"Compound": "CN1[C@@H]2CC[C@H]1C[C@@H](OC(c1ccccc1)c1ccccc1)C2", "Readout Number": 7.28}
{"Compound": "CC(C)C[C@H]1C(=O)N2CCC[C@H]2[C@]2(O)O[C@](NC(=O)[C@@H]3C=C4c5cccc6[nH]cc(c56)C[C@H]4N(C)C3)(C(C)C)C(=O)N12", "Readout Number": 7.32}
{"Compound": "CCN(CC)CCCC(C)Nc1c2ccc(Cl)cc2nc2ccc(OC)cc12 (centres undefined)", "Readout Number": 5.69}

Input line: Item `CN(C)CCC=C1c2ccccc2CCc2ccccc21` with Alpha-1D adrenergic receptor (Homo sapiens) - pIC50?
Output line: 6.98

Input line: And `CN1CCC(=C2c3ccccc3CC(=O)c3sccc32)CC1` ?
Output line: 5.43

Input line: Also need CN1CCCC(CN2c3ccccc3Sc3ccccc32)C1 (centres undefined) , thanks.
Output line: 6.86

Input line: Please answer likewise for `CN1CCN(C(c2ccccc2)c2ccccc2)CC1`
Output line: 5.92

* * *

# Measurement Description: DRUGMATRIX: Glutamate, AMPA radioligand binding (ligand: [3H] AMPA)
# Format: cell membranes, Rattus norvegicus, Wistar, Cerebral cortex, Membrane
# Measurement Parameters: Not Active = under 50% inhibition at 10 µM

{"Molecule": "CCCCCCCCNC(C)C(O)c1ccc(SC(C)C)cc1 (stereo not drawn)", "Ki": "Not Active"}
{"Molecule": "COc1cccc2c1C(=O)c1c(O)c3c(c(O)c1C2=O)C[C@@](O)(C(C)=O)C[C@@H]3O[C@H]1C[C@H](N)[C@H](O)[C@H](C)O1", "Ki": "Not Active"}
{"Molecule": "C[C@H]1COc2c(N3CCN(C)CC3)c(F)cc3c(=O)c(C(=O)O)cn1c23.C[C@H]1COc2c(N3CCN(C)CC3)c(F)cc3c(=O)c(C(=O)O)cn1c23.O", "Ki": "Not Active"}

* * *

# Assayed Target: UniProt P21917
# Sequence (P21917 whole entry): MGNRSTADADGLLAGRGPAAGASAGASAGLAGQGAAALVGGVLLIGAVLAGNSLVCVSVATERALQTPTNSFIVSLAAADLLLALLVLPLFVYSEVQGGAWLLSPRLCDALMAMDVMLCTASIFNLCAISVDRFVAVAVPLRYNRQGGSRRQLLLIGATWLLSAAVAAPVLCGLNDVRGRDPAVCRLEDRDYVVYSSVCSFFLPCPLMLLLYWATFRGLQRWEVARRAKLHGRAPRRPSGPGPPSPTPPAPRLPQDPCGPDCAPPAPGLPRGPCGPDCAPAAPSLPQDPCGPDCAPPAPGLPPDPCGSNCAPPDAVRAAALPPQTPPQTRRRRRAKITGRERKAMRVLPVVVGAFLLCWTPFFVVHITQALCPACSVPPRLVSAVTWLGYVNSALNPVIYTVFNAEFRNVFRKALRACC
# Measurement Description: DRUGMATRIX: Dopamine D4.2 radioligand binding (ligand: [3H] Spiperone)
# Type: cell membranes, CHO-K1, Membrane
# Measurement Parameters: Not Active = under 50% inhibition at 10 µM; read-out: Ki
Readout Label: Ki (µM)
// return numeric value only (unit: µM, not printed)

Input line: Fill in: Ki of Clc1ccc(COC(Cn2ccnc2)c2ccc(Cl)cc2Cl)c(Cl)c1 (stereo unspecified) is ___
Output line: 5.35

* * *

# Measurement Description: DRUGMATRIX: GABAA, Flunitrazepam, Central radioligand binding (ligand: [3H] Flunitrazepam)
# Assay type: cell membranes, Rattus norvegicus, Wistar, Brain, Membrane
# Measurement Parameters: Not Active = under 50% inhibition at 10 µM

{"Compound": "NCCCNCCSP(=O)(O)O [AMIFOSTINE]", "Ki": "Not Active"}
{"Compound": "CC(=O)OC[C@H]1O[C@@H](n2ncc(=O)[nH]c2=O)[C@H](OC(C)=O)[C@@H]1OC(C)=O [AZARIBINE]", "Ki": "Not Active"}
{"Compound": "Cc1c(O)cccc1C(=O)N[C@@H](CSc1ccccc1)[C@H](O)CN1C[C@H]2CCCC[C@H]2C[C@H]1C(=O)NC(C)(C)C", "Ki": "Not Active"}
{"Compound": "C[N+](C)(C)C[C@H](O)CC(=O)[O-] [LEVOCARNITINE]", "Ki": "Not Active"}

* * *

# pIC50 per entry for Cytochrome P450 2D6 (Homo sapiens, UniProt P10635)
In simple prose, pIC50 is minus the logarithm base ten of a concentration in moles per litre.

Examples with answers:
{"Molecule": "CC[C@H]1[C@@H]2C[C@H]3[C@@H]4N(C)c5ccccc5[C@]45C[C@@H]([C@@H]2[C@H]5O)N3[C@@H]1O", "pIC50": 6.00}
{"Molecule": "Clc1ccc(COC(Cn2ccnc2)c2ccc(Cl)cc2Cl)c(Cl)c1 (stereo not given)", "pIC50": 6.00}
{"Molecule": "NNCCc1ccccc1", "pIC50": 6.00}

Input line: Requested read-out pIC50, target or system Cytochrome P450 2D6 (Homo sapiens, UniProt P10635), entry `CN1CCN(C(c2ccccc2)c2ccccc2)CC1`; also: in other assays of this panel Not Active means under 50% inhibition at 10 µM
Output line: 5.21

Input line: Now the molecule C[S+]([O-])c1ccc(-c2nc(-c3ccncc3)c(-c3ccc(F)cc3)[nH]2)cc1 (stereo not given)
Output line: 5.70

* * *

# Assayed Target: Adenosine receptor A1 (Homo sapiens, UniProt P30542); also: in other assays of this panel Not Active means under 50% inhibition at 10 µM;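 also: radioligand binding assay at the adenosine A1 receptor, with DPCPX serving as the labelled ligand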
# Sequence (P30542 whole entry): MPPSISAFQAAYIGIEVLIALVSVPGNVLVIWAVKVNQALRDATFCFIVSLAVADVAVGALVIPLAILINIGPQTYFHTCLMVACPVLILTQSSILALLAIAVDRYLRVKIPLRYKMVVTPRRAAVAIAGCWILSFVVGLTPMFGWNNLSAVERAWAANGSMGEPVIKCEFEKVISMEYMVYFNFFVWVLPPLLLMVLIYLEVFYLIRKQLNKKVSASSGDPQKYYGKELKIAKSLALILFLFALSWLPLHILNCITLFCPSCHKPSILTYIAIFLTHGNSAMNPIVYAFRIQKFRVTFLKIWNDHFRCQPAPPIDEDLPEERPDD
# Format: cell membranes, CHO, Membrane
# Measurement Parameters: cho
Readout Label: IC50

{"Compound": "CN(C)CCC=C1c2ccccc2CCc2ccccc21 [AMITRIPTYLINE]", "Readout Label": "IC50", "Result": "Not Active"}
{"Compound": "CN(C)C(=O)C(CCN1CCC(O)(c2ccc(Cl)cc2)CC1)(c1ccccc1)c1ccccc1 [LOPERAMIDE]", "Readout Label": "IC50", "Result": "Not Active"}
{"Compound": "CC(C)NC[C@@H](O)COc1cccc2ccccc12 [DEXPROPRANOLOL]", "Readout Label": "IC50", "Result": "Not Active"}

* * *

# Assayed Target: D(3) dopamine receptor (Homo sapiens, UniProt P35462)
# Sequence (P35462 whole entry): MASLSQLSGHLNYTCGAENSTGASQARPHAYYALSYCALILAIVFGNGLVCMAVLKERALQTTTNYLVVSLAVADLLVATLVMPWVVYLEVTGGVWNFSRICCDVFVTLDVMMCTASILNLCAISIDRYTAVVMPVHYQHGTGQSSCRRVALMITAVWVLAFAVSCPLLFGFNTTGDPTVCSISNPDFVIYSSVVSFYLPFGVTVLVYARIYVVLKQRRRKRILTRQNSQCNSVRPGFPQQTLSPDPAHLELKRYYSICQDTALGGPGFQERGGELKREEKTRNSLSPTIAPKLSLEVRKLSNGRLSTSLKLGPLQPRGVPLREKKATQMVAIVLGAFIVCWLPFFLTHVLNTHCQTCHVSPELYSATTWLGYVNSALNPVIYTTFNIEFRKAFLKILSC
# Measurement Description: DRUGMATRIX: Dopamine D3 radioligand binding (ligand: [3H] Spiperone)
# Format: cell membranes, CHO, Membrane
# Measurement Parameters: read-out: Ki
Doc: threshold 0.5 µM (exclusive). Items with Ki beneath it return Fulfilled; others return Not fulfilled.

As a guide, the following entries are already answered.
{"Molecule": "CN(C)C(=O)C(CCN1CCC(O)(c2ccc(Cl)cc2)CC1)(c1ccccc1)c1ccccc1 [LOPERAMIDE]", "Label Class": "Fulfilled"}
{"Molecule": "CN1CCC(=C2c3ccccc3CC(=O)c3sccc32)CC1", "Label Class": "Not fulfilled"}
{"Molecule": "NCCCNCCSP(=O)(O)O", "Label Class": "Not fulfilled"}
{"Molecule": "CC(C)C[C@H]1C(=O)N2CCC[C@H]2[C@]2(O)O[C@](NC(=O)[C@@H]3C=C4c5cccc6[nH]cc(c56)C[C@H]4N(C)C3)(C(C)C)C(=O)N12", "Label Class": "Fulfilled"}
{"Molecule": "CN(C)CCC=C1c2ccccc2CCc2ccccc21", "Label Class": "Fulfilled"}
{"Molecule": "CCCCCCCCNC(C)C(O)c1ccc(SC(C)C)cc1 (stereo unspecified)", "Label Class": "Not fulfilled"}

Input line: Could you please tell me whether Ki recorded for `CN1CCN(C(c2ccccc2)c2ccccc2)CC1` is less than 0.5 µM?
Output line: Not fulfilled

Input line: Note, next up: CCN(CC)CCCC(C)Nc1c2ccc(Cl)cc2nc2ccc(OC)cc12 (stereo unspecified)
Output line: Fulfilled

Input line: Record: `CN1[C@@H]2CC[C@H]1C[C@@H](OC(c1ccccc1)c1ccccc1)C2`
Output line: Fulfilled

Input line: Ok, now CN1CCCC(CN2c3ccccc3Sc3ccccc32)C1 (stereo unspecified)
Output line: Not fulfilled

Input line: Repeat with Clc1ccc(COC(Cn2ccnc2)c2ccc(Cl)cc2Cl)c(Cl)c1 (stereo unspecified)
Output line: Not fulfilled
